TESTED_TARGET: Prostaglandin G/H synthase 2 (Homo sapiens, UniProt P35354)
Sequence (P35354 whole entry): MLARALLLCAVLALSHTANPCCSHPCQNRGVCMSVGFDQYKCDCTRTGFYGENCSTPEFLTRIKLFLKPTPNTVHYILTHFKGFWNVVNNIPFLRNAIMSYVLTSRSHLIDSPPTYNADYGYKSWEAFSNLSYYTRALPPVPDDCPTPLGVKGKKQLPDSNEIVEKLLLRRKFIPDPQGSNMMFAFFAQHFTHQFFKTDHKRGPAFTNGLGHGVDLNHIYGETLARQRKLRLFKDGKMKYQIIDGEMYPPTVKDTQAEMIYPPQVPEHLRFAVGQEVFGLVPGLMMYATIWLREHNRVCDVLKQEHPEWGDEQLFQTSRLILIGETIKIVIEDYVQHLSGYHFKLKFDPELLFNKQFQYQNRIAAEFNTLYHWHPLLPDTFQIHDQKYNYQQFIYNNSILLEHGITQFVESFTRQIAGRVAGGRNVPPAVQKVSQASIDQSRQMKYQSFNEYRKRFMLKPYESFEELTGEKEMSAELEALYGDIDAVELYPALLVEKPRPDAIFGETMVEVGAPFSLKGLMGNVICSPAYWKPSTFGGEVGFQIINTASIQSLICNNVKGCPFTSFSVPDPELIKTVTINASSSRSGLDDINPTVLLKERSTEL
ASSAY: Inhibition of human recombinant COX2 assessed as prostaglandin F2alpha level
This listing pairs compounds with measured pIC50.
Friendly reminder that pIC50 comes from taking -log10 of the concentration in mol/L.

COc1ccc(-n2nc(C(=O)NN)nc2-c2cc(OC)c(OC)c(OC)c2)cc1 4.33

# ---- query compound ----
The value of pIC50 measured for the compound CNC(=O)c1nc(-c2cc(OC)c(OC)c(OC)c2)n(-c2ccc(OC)cc2)n1 turned out to be 4.17

====

Tested on: Rattus norvegicus
ASSAY: Antiinflammatory activity in albino rat assessed as inhibition of carrageenan-induced paw edema at 0.28 mmol/kg, po administered 30 mins before carrageenan challenge measured after 1 hr relative to control
Assay type: functional
This listing pairs compounds with measured inhibition in vivo at 280 µmol/kg.
Report the figure in % without appending any unit label.

COc1ccc(-n2nc(C(=O)NN)nc2-c2cc(OC)c(OC)c(OC)c2)cc1 36

# ---- query compound ----
The value of inhibition in vivo at 280 µmol/kg measured for the compound COc1ccc(NC(=O)c2nc(-c3cc(OC)c(OC)c(OC)c3)n(-c3ccc(OC)cc3)n2)cc1 turned out to be 39

====

Test system: Rattus norvegicus
ASSAY: Ulcerogenic effect in albino rat assessed as ulcer index at 0.28 mmol/kg, po
Type: toxicity, organism-based
ASSAY_CONTEXT: in vivo
UI class ranges: group 1: < 4; group 2: ≥ 4 and < 7; group 3: ≥ 7

Answered cases to consult:
COMPOUND	LABEL
COc1ccc(-n2nc(C(=O)Nc3ccc(Br)cc3)nc2-c2cc(OC)c(OC)c(OC)c2)cc1	group 1
COc1ccc(-n2nc(C(=O)Nc3ccccc3OC)nc2-c2cc(OC)c(OC)c(OC)c2)cc1	group 2
Cc1ccc(-c2cc(C(F)(F)F)nn2-c2ccc(S(N)(=O)=O)cc2)cc1 [CELECOXIB]	group 1
CCNC(=O)c1nc(-c2cc(OC)c(OC)c(OC)c2)n(-c2ccc(OC)cc2)n1	group 3
COc1ccc(-n2nc(C(=O)Nc3ccc(C)cc3)nc2-c2cc(OC)c(OC)c(OC)c2)cc1	group 2
CNC(=O)c1nc(-c2cc(OC)c(OC)c(OC)c2)n(-c2ccc(OC)cc2)n1	group 3
COc1ccc(NC(=O)c2nc(-c3cc(OC)c(OC)c(OC)c3)n(-c3ccc(OC)cc3)n2)cc1	group 2
COc1ccc(-n2nc(C(=O)Nc3ccccc3C)nc2-c2cc(OC)c(OC)c(OC)c2)cc1	group 1
COc1ccc(-n2nc(C(=O)Nc3ccc(C(=O)O)cc3)nc2-c2cc(OC)c(OC)c(OC)c2)cc1	group 3
COc1ccc(-n2nc(C(=O)Nc3ccc(Cl)cc3)nc2-c2cc(OC)c(OC)c(OC)c2)cc1	group 2

Tag the class for COc1ccc(-n2nc(C(=O)Nc3ccc(O)cc3)nc2-c2cc(OC)c(OC)c(OC)c2)cc1
group 1

Tag the class for COc1ccc2c(c1)c(CC(=O)O)c(C)n2C(=O)c1ccc(Cl)cc1 [INDOMETHACIN]
group 3

====

Test system: Rattus norvegicus
ASSAY: Antiinflammatory activity in albino rat assessed as inhibition of carrageenan-induced paw edema at 0.28 mmol/kg, po administered 30 mins before carrageenan challenge measured after 5 hrs relative to control
Type: functional
This listing pairs compounds with measured inhibition in vivo at 280 µmol/kg.
Report the figure in % without appending any unit label.

COMPOUND	inhibition in vivo at 280 µmol/kg [%]
COc1ccc(-n2nc(C(=O)Nc3ccccc3C)nc2-c2cc(OC)c(OC)c(OC)c2)cc1	47
COc1ccc2c(c1)c(CC(=O)O)c(C)n2C(=O)c1ccc(Cl)cc1 [INDOMETHACIN]	86
Cc1ccc(-c2cc(C(F)(F)F)nn2-c2ccc(S(N)(=O)=O)cc2)cc1 [CELECOXIB]	51
COc1ccc(-n2nc(C(=O)Nc3ccc(C(=O)O)cc3)nc2-c2cc(OC)c(OC)c(OC)c2)cc1	60

The value of inhibition in vivo at 280 µmol/kg measured for the compound COc1ccc(NC(=O)c2nc(-c3cc(OC)c(OC)c(OC)c3)n(-c3ccc(OC)cc3)n2)cc1 turned out to be 51

The value of inhibition in vivo at 280 µmol/kg measured for the compound COc1ccc(-n2nc(C(=O)Nc3ccc(C)cc3)nc2-c2cc(OC)c(OC)c(OC)c2)cc1 turned out to be 42

The value of inhibition in vivo at 280 µmol/kg measured for the compound COc1ccc(-n2nc(C(=O)Nc3ccc(Br)cc3)nc2-c2cc(OC)c(OC)c(OC)c2)cc1 turned out to be 57

The value of inhibition in vivo at 280 µmol/kg measured for the compound COc1ccc(-n2nc(C(=O)Nc3ccccc3OC)nc2-c2cc(OC)c(OC)c(OC)c2)cc1 turned out to be 10

The value of inhibition in vivo at 280 µmol/kg measured for the compound COc1ccc(-n2nc(C(=O)Nc3cccc(C(F)(F)F)c3)nc2-c2cc(OC)c(OC)c(OC)c2)cc1 turned out to be 50
